experimental.system: T1, recombinant human CD33 protein (Sino Biologicals) (human, UniProt P20138 18-259)
T1 construct: Bought protein; also called recombinant CD33
T1 sequence (P20138 18-259 limits assumed): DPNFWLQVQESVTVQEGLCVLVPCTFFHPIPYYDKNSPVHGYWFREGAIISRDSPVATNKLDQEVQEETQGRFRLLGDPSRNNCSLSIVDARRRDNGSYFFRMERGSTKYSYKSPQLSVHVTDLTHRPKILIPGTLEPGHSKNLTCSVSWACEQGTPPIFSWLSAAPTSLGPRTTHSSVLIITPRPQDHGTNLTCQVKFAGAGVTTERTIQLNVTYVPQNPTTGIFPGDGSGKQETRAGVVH
test: BLI (ForteBio), antibody on anti-human Fc sensor, CD33 10 nM
Procedure: Affinity parameters of the antibody variants for human CD33 were measured by BioLayer Interferometry in a ForteBio assay according to standard techniques (Estep et al. (2013) MAbs 5(2): 270-8) and were compared to those of the parental antibody (antibody 6C7H8) and the parental humanized antibody (antibody 6C71H5). Briefly, the antibodies were captured on anti-human Fc Biosensors (Pall ForteBio). […] Apparent affinity constants (KD) were calculated from the ratio kd/kₐ.
recorded.metric: koff (s⁻¹)
Express your answer in s⁻¹, writing the number without its unit.

Recorded results for 2 binders are shown here.
{"binder": "anti-CD33 antibody 6C7H28 (antibody, V domains shown, VH/VL only) VH: EVQLVESGGGLVQPGGSLRLSCAGSGFTFSDYSMNWVRQAPGKGLEWVAEIRLKSNNYVTNYAASVKGRFTISRDDSKNSVYLQMNSLKTEDTGVYYCTRAGYYVPFAYWGQGTLVTVSS VL: QLVLTQSPSASASLGASVKLTCTLSSQHSTYTIEWYQQQPEKGPRYLMELKKEGSHSTGDGIPDRFSGSSSGAERYLTISSLQSEDEADYYCGVGDTIKEQFVYVFGGGTKLTVL", "endpoint.unit": "s⁻¹", "koff": 0.000859}
{"binder": "anti-CD33 antibody 6C7H30 (antibody, V domains shown, VH/VL only) VH: EVQLVESGGGLVQPGGSLRLSCAGSGFTFSNYWMNWVRQAPGKGLEWVAEIRLKSNNYVTNYAASVKGRFTISRDDSKNSVYLQMNSLKTEDTGVYYCTRAGYYVPFAYWGQGTLVTVSS VL: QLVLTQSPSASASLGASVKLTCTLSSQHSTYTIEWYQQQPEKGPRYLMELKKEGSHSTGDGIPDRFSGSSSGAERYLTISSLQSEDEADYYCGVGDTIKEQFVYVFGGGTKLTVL", "endpoint.unit": "s⁻¹", "koff": 0.0059}

Please turn your attention to the following entry.
Data request: Record request: koff value, item anti-CD33 antibody 6C7H27 (antibody, V domains shown, VH/VL only) VH: EVQLVESGGGLVQPGGSLRLSCAGSGFTFSDYTMNWVRQAPGKGLEWVAEIRLKSNNYVTNYAASVKGRFTISRDDSKNSVYLQMNSLKTEDTGVYYCTRAGYYVPFAYWGQGTLVTVSS VL: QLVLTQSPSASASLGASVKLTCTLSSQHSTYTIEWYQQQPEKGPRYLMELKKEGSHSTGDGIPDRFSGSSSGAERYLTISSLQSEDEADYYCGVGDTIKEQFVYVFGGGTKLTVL
Data returned: 0.00365
